experiment notes: protein stability index of a GFP-peptide fusion (yeast GPS) (PSI 1-4); higher = more stable; sorted into four equal gates, so the index is relative within each strain
condition details: pdr5∆
Please map values of protein stability index to classes as shown: low (below 2), middle (2 to below 3), high (3 or more)

{"entry sequence": "YFLRRQYILQIVSFIVN [YJL039C/NUP192]", "category label": "low"}
{"entry sequence": "FEQDSHLRYQPDGVVVH [SNF6]", "category label": "high"}
{"entry sequence": "QKMAELEAARSEKQNDE [PRP8]", "category label": "low"}
{"entry sequence": "GVYSDDELLSQLDLCKL [SRP68]", "category label": "high"}
{"entry sequence": "LKEVLYNDSATSGEAAA [RPN2]", "category label": "low"}
{"entry sequence": "LTLYLFQDYLTQQAVNL [IRR1]", "category label": "low"}
{"entry sequence": "ISHIEKRIESLQKDLQR [SMC1]", "category label": "middle"}
{"entry sequence": "QITPTVPHSHPSDMVIP [SNF12]", "category label": "middle"}
{"entry sequence": "ASNEVIAKSRYWYFLQK [RPL20A]", "category label": "middle"}

* * *

experiment notes: protein stability index of a GFP-peptide fusion (yeast GPS) (PSI 1-4); higher = more stable; sorted into four equal gates, so the index is relative within each strain
condition details: pdr5∆

{"entry sequence": "KGETNSEISIIDATLKE [RRP45]", "protein stability index": 3.08}
{"entry sequence": "RNVLSASLDGTIRLWEC [RPN14]", "protein stability index": 3.09}
{"entry sequence": "MAIEIINDIRDDDIEKQ [YCG1]", "protein stability index": 3.07}

* * *

experiment notes: protein stability index of a GFP-peptide fusion (yeast GPS) (PSI 1-4); higher = more stable; sorted into four equal gates, so the index is relative within each strain
condition details: pdr5∆
Each entry gets NOT MET if its protein stability index stays under 3, and MET if its protein stability index is 3 or above.

{"entry sequence": "KVAEVKKLEGTIEYQKL [RPT4]", "category label": "MET"}
{"entry sequence": "LLKDIFANNLKSAISNN [SIR4]", "category label": "NOT MET"}
{"entry sequence": "SPEGRLFQVEYSLEAIK [PUP2]", "category label": "NOT MET"}
{"entry sequence": "VRGGNIEIMGILMGFTL [RRI1]", "category label": "NOT MET"}
{"entry sequence": "SQTNNSFLSGVKSLLSE [SIR4]", "category label": "MET"}
{"entry sequence": "RSRNGGATKIVREHYLR [DIS3]", "category label": "MET"}
{"entry sequence": "KKAAEEAGVTDVKVSIS [FAS2]", "category label": "NOT MET"}
{"entry sequence": "LGLKFDDLIAEENPIMQ [QCR7]", "category label": "NOT MET"}
{"entry sequence": "SSLFNNSTNSNTTKPAF [YJL041W/NSP1]", "category label": "NOT MET"}
{"entry sequence": "QRRSWRQYVGQLAPSSV [DIS3]", "category label": "NOT MET"}
{"entry sequence": "VQDLGSAISVTNVEDPL [SIR2]", "category label": "NOT MET"}
{"entry sequence": "NNIKNGTNNISQHGQGN [YDL088C/ASM4]", "category label": "NOT MET"}
{"entry sequence": "GFQDRSLPHFPKNSKTP [RPO31]", "category label": "NOT MET"}
{"entry sequence": "FRALGIIPDGEILEHIC [RPB2]", "category label": "NOT MET"}
{"entry sequence": "VKVVDAGNKVGQSEASL [RPP0]", "category label": "MET"}
{"entry sequence": "MPPKQQLSKAAKAAAAL [RPS25A]", "category label": "NOT MET"}
{"entry sequence": "VVAKKDFNQAKHEEIDT [RPS10A]", "category label": "NOT MET"}
{"entry sequence": "VTTKDDLSGADIQAMCT [RPT2]", "category label": "MET"}
{"entry sequence": "DSFIFDGTAKEVGDEAD [MED4]", "category label": "MET"}
{"entry sequence": "DDDDYGDEEDPNEEAAF [RPC31]", "category label": "MET"}
{"entry sequence": "KLFVSKEHAPYTDELEE [FAS2]", "category label": "NOT MET"}
{"entry sequence": "SYYGIVCLMQISTRERD [RRP6]", "category label": "NOT MET"}
{"entry sequence": "MLWNLAAKKAMYTLSAQ [ASC1]", "category label": "NOT MET"}
{"entry sequence": "FGSKPTGATSLFGSSNN [YGL172W/NUP49]", "category label": "MET"}
{"entry sequence": "TLVNKSTGLKNASDALK [RPS1B]", "category label": "MET"}
{"entry sequence": "IQNKKIQEQRVKDKQSK [RPN8]", "category label": "NOT MET"}
{"entry sequence": "ALVFAALEHLKNLSLLA [SRP68]", "category label": "NOT MET"}
{"entry sequence": "GKQVFSLLIKPNHNSPV [RPO31]", "category label": "MET"}
{"entry sequence": "LFKGTGFNSWEGLFWEK [PRP8]", "category label": "NOT MET"}
{"entry sequence": "PPPPQQSQPIANQSATS [SNF5]", "category label": "MET"}
{"entry sequence": "DRKNRAPPQRPRFNRDN [RPS26B]", "category label": "NOT MET"}
{"entry sequence": "AYVAIEQVKDDGTSTEK [RPN8]", "category label": "NOT MET"}
{"entry sequence": "LENFKSYAGKQVVGPFH [SMC4]", "category label": "MET"}
{"entry sequence": "QFLYEKHYKNIPRNSPL [RPC82]", "category label": "NOT MET"}
{"entry sequence": "DSADVPAFSNSNGFNNV [YMR153W/NUP53]", "category label": "MET"}

Recorded values, source the supplement of paper PMC9732359.
